This collection of values is drawn from ChEMBL document CHEMBL1938300.

assay: Volume of distribution in Sprague-Dawley rat by HPLC; format: ADME, organism-based; conditions: in vivo
// label = fulfilled if Vd is not less than 0.8 L/kg, otherwise not fulfilled

{"COMPOUND": "CNC(=O)c1cccc(F)c1Nc1nc(Nc2ccc3c(c2)NC(=O)C(NC(=O)C(F)(F)F)CC3(C)C)ncc1Cl.O=C(O)C(F)(F)F (racemic)", "LABEL CLASS": "fulfilled"}
{"COMPOUND": "CNC(=O)c1cccc(F)c1Nc1nc(Nc2ccc3c(c2)NC(=O)[C@H](NC(=O)N2CCCC2)CC3(C)C)ncc1Cl", "LABEL CLASS": "not fulfilled"}
{"COMPOUND": "CNC(=O)c1cccc(F)c1Nc1nc(Nc2ccc3c(c2)NC(=O)C(NC(=O)CN(C)C)CC3(C)C)ncc1Cl.O=C(O)C(F)(F)F (racemic)", "LABEL CLASS": "fulfilled"}
{"COMPOUND": "CNC(=O)c1cccc(F)c1Nc1nc(Nc2ccc3c(c2)NC(=O)CCC3(C)C)ncc1Cl", "LABEL CLASS": "not fulfilled"}
{"COMPOUND": "CNC(=O)c1cccc(F)c1Nc1nc(Nc2ccc3c(c2)NC(=O)[C@@H](NC(=O)N2CCCC2)CC3(C)C)ncc1Cl", "LABEL CLASS": "not fulfilled"}
